Origin of values: patent US8367873B2

Hi there, I'd appreciate the recorded herbicidal effect against ALOMY (Alopecurus myosuroides) for every entry that follows.
Tested on: Alopecurus myosuroides
Test: Herbicidal post-emergence action
Type: in vivo
Conditions: post-emergence method, 80 g/ha
One number for each entry, in %.

The cases that follow already have their herbicidal effect against ALOMY (Alopecurus myosuroides) on record.
CCOC(=O)OC1=C(c2c(C)cc(C)cc2CC)C(=O)C2CC3(CC12)OCC=CCO3 (racemic) | 100
C=C1CC2C(=O)C(c3c(C)cc(C)cc3C)=C(OC(=O)C(C)C)C2C1 (centres unmarked) | 40
C=C1CC2C(=O)C(c3c(C)cc(C)cc3CC)=C(O)C2C1 (centres unmarked) | 20
CCOC(=O)OC1=C(c2c(CC)cc(C)cc2CC)C(=O)[C@@H]2CC3(C[C@H]12)SCCS3 (relative stereo) | 90
Cc1cc(C)c(C2=C(OC(=O)C(C)(C)C)C3CC4(CC3C2=O)OCCCCO4)c(C)c1 (centres unmarked) | 40

Could you report herbicidal effect against ALOMY (Alopecurus myosuroides) for every entry in the following list?
1. CCc1cc(C)cc(C)c1C1=C(O)C2CC(=O)CC2C1=O (centres unmarked)
2. CCc1cc(C)cc(CC)c1C1=C(OC(=O)C(C)C)C2CC3(CC2C1=O)OCC(C)CO3 (centres unmarked)
3. COc1cc(C)cc(C)c1C1=C(OC(=O)C(C)C)C2CC3(CC2C1=O)OCCCO3 (centres unmarked)
4. CON=C1CC2C(=O)C(c3c(C)cc(C)cc3C)=C(O)C2C1 (centres unmarked)
5. Cc1cc(C)c(C2=C(OC(=O)CC(C)C)C3CC(=O)CC3C2=O)c(C)c1 (centres unmarked)
6. Cc1cc(C)c(C2=C([O-])C3CC4(CC3C2=O)OC(C)CC(C)O4)c(C)c1.[Na+] (centres unmarked)
7. CCOC(=O)OC1=C(c2c(C)cc(C)cc2OC)C(=O)C2CC3(CC12)OCCCO3 (racemic)
8. CCc1cc(C)cc(CC)c1C1=C(OC(=O)OC)C2CC3(CC2C1=O)OC(C)CC(C)O3 (mixture of isomers)

Reply:
[0, 100, 100, 20, 20, 90, 100, 100]

Could you report herbicidal effect against ALOMY (Alopecurus myosuroides) for every entry in the following list?
1. CCc1cc(C)cc(CC)c1C1=C([O-])C2CC3(CC2C1=O)OC(C)CC(C)O3.[Na+] (mixture of isomers) [I-f-19]
2. CCc1cc(C)cc(CC)c1C1=C(O)C2CC3(CC2C1=O)OCCS3 (mixture of isomers)

Reply:
[100, 100]

Could you report herbicidal effect against ALOMY (Alopecurus myosuroides) for every entry in the following list?
1. CCOC(=O)OC1=C(c2c(CC)cc(C)cc2CC)C(=O)C2CC3(CC12)OC(C)CC(C)O3 (centres unmarked) [I-c-13]
2. C=C1CC2C(=O)C(c3c(C)cc(C)cc3C)=C([O-])C2C1.[Na+] (centres unmarked)
3. CCc1cc(C)cc(CC)c1C1=C(OC(=O)C(C)(C)CCl)C2CC3(CC2C1=O)OCCCO3 (centres unmarked)
4. CCc1cc(C)cc(CC)c1C1=C(O)[C@H]2CC3(C[C@H]2C1=O)OCC(OCc1ccccc1)CO3 (relative stereo)
5. CCc1cc(C)cc(CC)c1C1=C(O)C2CC3(COC(C)O3)CC2C1=O (mixture of isomers)
6. CCOC(=O)OC1=C(c2c(CC)cc(C)cc2CC)C(=O)C2CC3(CC12)OCCS3 (mixture of isomers)
7. Cc1cc(C)c(C2=C(OC(=O)C(C)C)C3CC4(CC3C2=O)OCCCCO4)c(C)c1 (centres unmarked)
8. CCc1cc(C)cc(CC)c1C1=C([O-])C2CC3(CC2C1=O)OCC(OC)CO3.[Na+] (centres unmarked)

Reply:
[70, 0, 100, 100, 90, 80, 40, 100]

Could you report herbicidal effect against ALOMY (Alopecurus myosuroides) for every entry in the following list?
1. CCC(=O)OC1=C(c2c(C)cc(C)cc2C)C(=O)C2CC(=O)CC12 (centres unmarked)
2. COCC(=O)OC1=C(c2c(C)cc(C)cc2C)C(=O)C2CC3(COC(C)(C)O3)CC12 (mixture of isomers)
3. Cc1cc(C)c(C2=C(OC(=O)C(C)C)C3CC4(CC3C2=O)OCC=CCO4)c(C)c1 (centres unmarked)

Reply:
0
90
100
